# SYSTEM NAME: Glucagon-like peptide 1 receptor (Homo sapiens, UniProt P43220)
# Sequence (P43220 whole entry): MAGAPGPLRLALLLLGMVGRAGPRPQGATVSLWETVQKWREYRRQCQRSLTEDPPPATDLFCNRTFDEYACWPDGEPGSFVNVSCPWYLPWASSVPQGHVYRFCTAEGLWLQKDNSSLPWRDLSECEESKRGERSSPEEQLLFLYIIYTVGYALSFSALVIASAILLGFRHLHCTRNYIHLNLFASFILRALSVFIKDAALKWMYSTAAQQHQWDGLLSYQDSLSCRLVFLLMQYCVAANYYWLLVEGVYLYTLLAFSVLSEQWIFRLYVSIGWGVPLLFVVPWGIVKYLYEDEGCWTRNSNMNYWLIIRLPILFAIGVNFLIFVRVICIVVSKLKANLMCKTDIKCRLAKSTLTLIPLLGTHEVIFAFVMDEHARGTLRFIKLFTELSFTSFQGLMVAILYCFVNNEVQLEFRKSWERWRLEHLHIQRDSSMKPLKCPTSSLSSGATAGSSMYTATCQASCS
# MEASUREMENT NOTES: Agonist activity at human GLP-1R expressed in HEK293 cells assessed as stimulation of cAMP accumulation incubated for 20 mins in presence of 4.4% HSA
# Type: functional, cell-based
*1 amine or outer side, *2 acyl side, *3 side chain or, on linkers, in order; H or OH if unused. Bridges are numbered along the chain shown (N, C = ends). [ ]: non-standard residue; d: D form. X4 = O=C(O)CCCCCCCCCCCCCCCCC(=O)NC(CCC(=O)NCCOCCOCC(=O)NCCOCCOCC(=O)NCCCCCCNC(=O)C(CCCCNC(=O)CCN1C(=O)CC([*:1])C1=O)NC(=O)CCN1C(=O)CC([*:2])C1=O)C(=O)O; X5 = O=C(O)CCCCCCCCCCCCCCCCC(=O)NC(CCC(=O)NCCOCCOCC(=O)NCCOCCOCC(=O)NCCCCCCNC(=O)C(CCCCNC(=O)CCN1C(=O)CC([*:2])C1=O)NC(=O)CCN1C(=O)CC([*:1])C1=O)C(=O)O; X1 = CCCCCCCCCCCCCCCC(=O)NCCCCCCNC(=O)C(CCCCNC(=O)CCN1C(=O)CC([*:1])C1=O)NC(=O)CCN1C(=O)CC([*:2])C1=O; X6 = CCCCCCCCCCCCCCCC(=O)NCCCCCCNC(=O)C(CCCCNC(=O)CCN1C(=O)CC([*:2])C1=O)NC(=O)CCN1C(=O)CC([*:1])C1=O; Aib = CC(C)(N)C(=O)O
Entries annotated with measured EC50

SUBSTANCE: H-H[Aib]EGTYTNDVTEYCEEEAAKCFIEWLIKGKPSSGAPPSKKKKKK-NH2 (linker 14-21 via X1)
EC50 (nM): 1.4
--
SUBSTANCE: H-H[Aib]EGTYTNDVTEYLEEEAAKCFIEWLICGKPSSGAPPSKKKKKK-NH2 (linker 21-28 via X5)
EC50 (nM): 2.7
--
SUBSTANCE: H-H[Aib]EGTYTNDVTEYCEEEAAKCFIEWLIKGKPSSGAPPSKKKKKK-NH2 (linker 14-21 via X4)
EC50 (nM): 12.7
--
SUBSTANCE: H-H[Aib]EGTYTNDVTEYLEEEAAKCFIEWLICGKPSSGAPPSKKKKKK-NH2 (linker 21-28 via X6)
EC50 (nM): 1.9
